Cited source for all entries: patent US20250163066A1

Each entry below carries its reported EC50.
# study.target: MALT1 (Homo sapiens (Human))
# Sequence (Q9UDY8 whole entry): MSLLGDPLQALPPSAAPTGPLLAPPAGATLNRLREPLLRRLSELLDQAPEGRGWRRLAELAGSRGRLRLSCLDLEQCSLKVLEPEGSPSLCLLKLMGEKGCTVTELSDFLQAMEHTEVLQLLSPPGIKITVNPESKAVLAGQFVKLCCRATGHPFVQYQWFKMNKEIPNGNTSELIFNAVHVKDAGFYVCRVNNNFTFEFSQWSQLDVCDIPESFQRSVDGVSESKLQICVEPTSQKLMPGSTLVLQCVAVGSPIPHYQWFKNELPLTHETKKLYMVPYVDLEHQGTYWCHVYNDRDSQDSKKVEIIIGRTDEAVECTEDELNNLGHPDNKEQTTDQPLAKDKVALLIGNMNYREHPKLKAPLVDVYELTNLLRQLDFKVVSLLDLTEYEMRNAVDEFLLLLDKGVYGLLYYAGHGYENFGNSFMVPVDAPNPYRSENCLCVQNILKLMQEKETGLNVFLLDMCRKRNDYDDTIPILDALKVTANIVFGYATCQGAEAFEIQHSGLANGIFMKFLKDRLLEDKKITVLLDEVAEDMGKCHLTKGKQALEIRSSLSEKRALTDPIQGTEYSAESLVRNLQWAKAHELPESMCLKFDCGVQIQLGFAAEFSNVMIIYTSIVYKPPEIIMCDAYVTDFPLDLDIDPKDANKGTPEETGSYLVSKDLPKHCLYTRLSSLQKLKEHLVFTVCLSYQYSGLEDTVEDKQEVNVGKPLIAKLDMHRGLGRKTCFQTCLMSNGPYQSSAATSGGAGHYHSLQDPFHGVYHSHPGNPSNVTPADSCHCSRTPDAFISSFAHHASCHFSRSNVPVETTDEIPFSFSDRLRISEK
# assay.text: MALT1 enzymatic activity inhibition (fluorescence, Ac-LRSR-AMC substrate)
# Type: biochemical
# experimental.parameters: recombinant MALT1 1.5 ng/μl, Ac-LRSR-AMC 1 μM
attribute.measured: EC50

>>> result("O=C1CCC(N2Cc3cc(N4CCN(C(=O)CCCCn5cc(NC(=O)Nc6cnc7ccnn7c6C6CCC6)c(C(F)(F)F)n5)CC4)ccc3C2=O)C(=O)N1 (centres unmarked) [Compound 152]")
"1 to 5 µM"
>>> result("O=C1CCC(N2Cc3cc(N4CCN(CCCCCc5nc(-c6ncc(NC(=O)Nc7cnc8ccnn8c7C7CCCCC7)cc6Cl)no5)CC4)ccc3C2=O)C(=O)N1 (centres unmarked) [Compound 99]")
"≤ 0.2 µM"
>>> result("O=C(CCOCCOCCN1CCN(c2ccc3c(c2)CN(C2CCC(=O)NC2=O)C3=O)CC1)NCCNC(=O)[C@@H]1C[C@@H](O)CN1C(=O)Nc1cnc2ccnn2c1C1CCCC1 (some centres unmarked) [Compound 47]")
"> 5 µM"
>>> result("O=C(CCOCCN1CCN(c2ccc3c(c2)CN(C2CCC(=O)NC2=O)C3=O)CC1)NCCOc1ncc(Cl)cc1NC(=O)Nc1cnc2ccnn2c1C1CCCCC1 (centres unmarked) [Compound 44]")
"1 to 5 µM"
>>> result("Cc1cc(NC(=O)Nc2cnc3ccnn3c2C2CCCC2)cnc1-c1noc(CCCCN2CCN(c3ccc4c(c3)CN(C3CCC(=O)NC3=O)C4=O)CC2)n1 (centres unmarked) [Compound 21]")
"≤ 0.2 µM"

====

molecules and their reported EC50
# study.target: UniProtKB Q9UDY8
# assay.text: MALT1 enzymatic activity inhibition (fluorescence, Ac-LRSR-AMC substrate)
# Format: biochemical
# experimental.parameters: recombinant MALT1 1.5 ng/μl, Ac-LRSR-AMC 1 μM
attribute.measured: EC50

>>> result("Cc1cc(NC(=O)Nc2cnc3ccnn3c2C2CCCCC2)cnc1-c1noc(CCCCCC(=O)Nc2ccc3c(c2)CN(C2CCC(=O)NC2=O)C3=O)n1 (stereo not drawn)")
"0.2 to 0.5 µM"
>>> result("O=C1CCC(N2Cc3cc(N4CCN(C(=O)CCCc5nc(-c6ncc(NC(=O)Nc7cnc8ccnn8c7C7CCCC7)cc6F)no5)CC4)ccc3C2=O)C(=O)N1 (stereo not drawn)")
"≤ 0.2 µM"
>>> result("Cc1cc(NC(=O)Nc2cnc3ccnn3c2C2CCCC2)cnc1-c1noc(CCCCCC(=O)N2CCN(c3ccc4c(c3)CN(C3CCC(=O)NC3=O)C4=O)CC2)n1 (stereo not drawn)")
"0.2 to 0.5 µM"
>>> result("Cc1cc(NC(=O)Nc2cnc3ccnn3c2C2CCCC2)cnc1-c1noc(CCCC(=O)N2CCN(c3ccc4c(c3)CN(C3CCC(=O)NC3=O)C4=O)CC2)n1 (stereo not drawn)")
"≤ 0.2 µM"
>>> result("Cc1cc2ncc(NC(=O)Nc3cnc(-c4noc(CCCCCC(=O)N5CCN(c6ccc7c(c6)CN(C6CCC(=O)NC6=O)C7=O)CC5)n4)c(C)c3)c(C3CCCO3)n2n1 (stereo not drawn)")
"≤ 0.2 µM"
>>> result("O=C1CCC(N2Cc3cc(N4CCN(C(=O)CCCc5nc(-c6ncc(NC(=O)Nc7cnc8ccnn8c7C7CC7)cc6Cl)no5)CC4)ccc3C2=O)C(=O)N1 (stereo not drawn)")
"≤ 0.2 µM"
